Target: T1, S100A11 (human, UniProt P31949 1-105)
T1 sequence (looked up): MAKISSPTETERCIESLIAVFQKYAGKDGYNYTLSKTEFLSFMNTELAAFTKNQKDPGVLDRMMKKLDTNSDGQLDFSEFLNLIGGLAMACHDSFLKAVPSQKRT
Assay: ITC
Ends that are not written are not given here.
measured_property: Kd (µM)
Give bare numbers, in µM.

Ask: What value of Kd has been recorded for this entry: Ac-AMVSEFLKQAWFIE [Annexin I peptide]
Reply: 5
